Origin of the recorded values: patent US9302999B2

Plant response rating, Bromegrass, Downy listing for selected compounds.
# System: bromegrass, downy (downy bromegrass, Bromus tectorum)
# method_summary: Test D pre-/postemergence: bromegrass, downy
# Type: in vivo
# measurement_conditions: Preemergence; 125 g ai/ha; scale 0 to 100
reported_property: Plant response rating, Bromegrass, Downy

compound: FC(F)(F)COc1nn(-c2ccc(C(F)(F)F)cc2)nc1Cc1ccnc(C(F)(F)F)c1
target_system: bromegrass, downy (downy bromegrass, Bromus tectorum)
value_observed: 20
//
compound: CCc1nn(-c2ccc(C(F)(F)F)cc2)nc1Cc1ccnc(C(F)(F)F)c1
target_system: bromegrass, downy (downy bromegrass, Bromus tectorum)
value_observed: 35
//
compound: Cc1nn(-c2ccc(C(F)(F)F)cc2)nc1Oc1ccnc(C(F)(F)F)c1
target_system: bromegrass, downy (downy bromegrass, Bromus tectorum)
value_observed: 25
//
compound: Cc1nn(-c2ccc(C(F)(F)F)cn2)nc1Cc1cccc(C(F)(F)F)c1
target_system: bromegrass, downy (downy bromegrass, Bromus tectorum)
value_observed: 0

----------
# Test system: lambsquarters (Chenopodium album)
# method_summary: Test C pre-/postemergence: lambsquarters
# Assay type: in vivo
# measurement_conditions: Preemergence, 250 g ai/ha; scale 0 to 100, 0 no effect, 100 complete control
reported_property: Plant response rating, Lambsquarters

compound: COc1nn(-c2ccc(C(F)(F)F)cc2)nc1Cc1ccnc(C(F)F)c1
target_system: lambsquarters (Chenopodium album)
value_observed: 98

compound: CCOc1nn(-c2ccc(F)cc2)nc1Cc1ccnc(C(F)(F)F)c1
target_system: lambsquarters (Chenopodium album)
value_observed: 95

compound: CCc1nn(-c2ccc(F)c(F)c2)nc1Oc1ccnc(C(F)(F)F)c1
target_system: lambsquarters (Chenopodium album)
value_observed: 100

compound: CCc1nn(-c2ccc(C(F)(F)F)cc2)nc1Oc1ccnc(C(F)(F)F)c1
target_system: lambsquarters (Chenopodium album)
value_observed: 90

compound: CCc1nn(-c2ccc(F)cc2)nc1Cc1ccnc(C(F)(F)F)c1
target_system: lambsquarters (Chenopodium album)
value_observed: 100

compound: Cc1nn(-c2ccc(C(F)(F)F)cc2)nc1Oc1ccnc(C(F)(F)F)c1
target_system: lambsquarters (Chenopodium album)
value_observed: 100

----------
# Test system: lambsquarters (Chenopodium album)
# method_summary: Test C pre-/postemergence: lambsquarters
# Format: in vivo
# measurement_conditions: Postemergence, 250 g ai/ha; scale 0 to 100
reported_property: Plant response rating, Lambsquarters

compound: FC(F)(F)c1ccc(-n2nc(Cl)c(Cc3ccnc(C(F)(F)F)c3)n2)cc1
value_observed: 95
--
compound: Cc1nn(-c2ccc(F)c(C(F)(F)F)c2)nc1Cc1ccnc(C(F)(F)F)c1
value_observed: 98
--
compound: FC(F)(F)COc1nn(-c2ccc(C(F)(F)F)cc2)nc1Cc1ccnc(C(F)(F)F)c1
value_observed: 100
--
compound: CCOc1nn(-c2ccc(C(F)(F)F)cc2)nc1Cc1ccnc(C(F)(F)F)c1
value_observed: 70

----------
# Test system: Russian thistle (Salsola iberica)
# method_summary: Test D pre-/postemergence: Russian thistle
# Assay type: in vivo
# measurement_conditions: Postemergence, 31 g ai/ha; scale 0 to 100 (0 no effect, 100 complete control)
reported_property: Plant response rating: Russian Thistle

compound: FC(F)(F)COc1nn(-c2ccc(C(F)(F)F)cc2)nc1Cc1ccnc(C(F)(F)F)c1
value_observed: 0
--
compound: Cc1nn(-c2ccc(C(F)(F)F)cn2)nc1Cc1cccc(C(F)(F)F)c1
value_observed: 25
--
compound: COc1nn(-c2ccc(C(F)(F)F)cc2)nc1Cc1ccnc(C(F)F)c1
value_observed: 75
--
compound: CCc1nn(-c2ccc(C(F)(F)F)cc2)nc1Cc1ccnc(C(F)(F)F)c1
value_observed: 80
--
compound: Cc1nn(-c2ccc(C(F)(F)F)cc2)nc1Oc1ccnc(C(F)(F)F)c1
value_observed: 95
